Some compounds, each annotated with its measured EC50.
System: Human immunodeficiency virus 1
Test: Antiviral activity against HIV-1 F227L-V106A mutant infected in human MT4 cells assessed as protection against virus induced cytopathic effect and measured after 5 days by MTT spectrophotometric assay
Type: functional, organism-based
Conditions: Human immunodeficiency virus 1, MT4, 120 h
Write the value in µM as a bare number.

compound	subjectOfTest	EC50 [µM]
CS(=O)(=O)Nc1ccc2[nH]c(C(=O)N3CCC(Nc4nccc(Oc5cccc(Br)c5)n4)CC3)cc2c1	Human immunodeficiency virus 1	8.1
Nc1ccn([C@@H]2CS[C@H](CO)O2)c(=O)n1 [LAMIVUDINE]	Human immunodeficiency virus 1	8.2
Cc1cccc(C)c1Oc1ccnc(NC2CCN(C(=O)c3cc4cc(NS(C)(=O)=O)ccc4[nH]3)CC2)n1	Human immunodeficiency virus 1	2.7

Here's the next entry for you.
Exercise: Look up EC50 for this compound: "CS(=O)(=O)Nc1ccc2[nH]c(C(=O)N3CCC(Nc4nccc(Oc5cccc(Cl)c5)n4)CC3)cc2c1"
Solution: 8.8

###

A collection of molecules and their measured CC50 at 120 h
Assay: Cytotoxicity against human MT4 cells assessed as reduction in cell viability incubated for 5 days by MTT spectrophotometric assay
Assay type: toxicity, cell-based
Settings: time 5 day
All answers are understood in µM, so give the number only.

Cc1cccc(Oc2ccnc(NC3CCN(C(=O)c4cc5cc(NS(C)(=O)=O)ccc5[nH]4)CC3)n2)c1 27
CS(=O)(=O)Nc1ccc2[nH]c(C(=O)N3CCC(Nc4nccc(Oc5cccc(F)c5)n4)CC3)cc2c1 15
CS(=O)(=O)Nc1ccc2[nH]c(C(=O)N3CCC(Nc4nccc(Oc5cccc(C(F)(F)F)c5)n4)CC3)cc2c1 16

Exercise: What CC50 at 120 h value was documented for this molecule, "CS(=O)(=O)Nc1ccc2[nH]c(C(=O)N3CCC(Nc4nccc(Oc5ccc(Br)cc5)n4)CC3)cc2c1" ?
Solution: 9.1

Exercise: Please report the recorded CC50 at 120 h for "Cc1cc(C#N)cc(C)c1Oc1ccnc(NC2CCN(C(=O)c3cc4cc(NS(C)(=O)=O)ccc4[nH]3)CC2)n1" .
Solution: 25

Exercise: Using the record for "Cc1cc(Oc2ccnc(NC3CCN(C(=O)c4cc5cc(NS(C)(=O)=O)ccc5[nH]4)CC3)n2)cc(C)c1Cl" , report its CC50 at 120 h.
Solution: 5.3

###

Assay: Cytotoxicity against human MT4 cells assessed as reduction in cell viability incubated for 5 days by MTT spectrophotometric assay
Format: toxicity, cell-based
Settings: time 5 day
In this section we review reported CC50 at 120 h values for a set of compounds.
Write the number in µM without appending the unit.

// below: answered compounds
CS(=O)(=O)Nc1ccc2[nH]c(C(=O)N3CCC(Nc4nccc(Oc5ccc(Br)cc5F)n4)CC3)cc2c1 80
CS(=O)(=O)Nc1ccc2[nH]c(C(=O)N3CCC(Nc4nccc(Oc5cccc(Br)c5)n4)CC3)cc2c1 14
CS(=O)(=O)Nc1ccc2[nH]c(C(=O)N3CCC(Nc4nccc(Oc5cccc(Cl)c5)n4)CC3)cc2c1 14
CS(=O)(=O)Nc1ccc2[nH]c(C(=O)N3CCC(Nc4nccc(Oc5ccccc5Cl)n4)CC3)cc2c1 15

Exercise: Fill in the blank: the reported CC50 at 120 h of "CS(=O)(=O)Nc1ccc2[nH]c(C(=O)N3CCC(Nc4nccc(Oc5ccccc5Br)n4)CC3)cc2c1" is ____.
Solution: 17

Exercise: What value of CC50 at 120 h has been reported for the following compound? "Cc1ccccc1Oc1ccnc(NC2CCN(C(=O)c3cc4cc(NS(C)(=O)=O)ccc4[nH]3)CC2)n1"
Solution: 13

###

Experiment: in vitro
Settings: human, MT4 cells
Description: Selectivity index, ratio of CC50 for cytotoxicity against human MT4 cells assessed as reduction in cell viability to EC50 for antiviral activity against HIV-1 IIIb infected in human MT4 cells assessed as reduction in virus induced cytopathic effect
# label = condition met if selectivity ratio >= 40 else condition not met

Exercise: Identify whether the reported selectivity ratio of the following compound is 40 or greater: "Cc1cc(C)c(Oc2ccnc(NC3CCN(C(=O)c4cc5cc(NS(C)(=O)=O)ccc5[nH]4)CC3)n2)c(C)c1"
Solution: condition met

Exercise: I'd appreciate it if you could say whether "Cc1cc(C#N)cc(C)c1Oc1ccnc(NC2CCN(C(=O)c3cc4cc(NS(C)(=O)=O)ccc4[nH]3)CC2)n1" has selectivity ratio at least equal to 40.
Solution: condition met

Exercise: Please check the record "CS(=O)(=O)Nc1ccc2[nH]c(C(=O)N3CCC(Nc4nccc(Oc5ccc(C(F)(F)F)cc5)n4)CC3)cc2c1" and state if its selectivity ratio is at or above 40.
Solution: condition not met

Exercise: Quick check: does "Cc1cc(Oc2ccnc(NC3CCN(C(=O)c4cc5cc(NS(C)(=O)=O)ccc5[nH]4)CC3)n2)cc(C)c1Cl" have selectivity ratio greater than or equal to 40?
Solution: condition not met

Exercise: Please indicate if the recorded selectivity ratio for "CS(=O)(=O)Nc1ccc2[nH]c(C(=O)N3CCC(Nc4nccc(Oc5cccc(Cl)c5)n4)CC3)cc2c1" meets or exceeds 40.
Solution: condition not met

Exercise: Dear colleague, could you confirm whether "CS(=O)(=O)Nc1ccc2[nH]c(C(=O)N3CCC(Nc4nccc(Oc5ccc(Br)cc5)n4)CC3)cc2c1" has selectivity ratio at or above 40?
Solution: condition not met

Exercise: State whether the measured selectivity ratio reaches 40, counting equality as reaching it, for "Cc1cccc(Oc2ccnc(NC3CCN(C(=O)c4cc5cc(NS(C)(=O)=O)ccc5[nH]4)CC3)n2)c1"
Solution: condition not met

###

Each entry below carries its recorded EC50.
System: Human immunodeficiency virus 1
Assay: Antiviral activity against HIV-1 F227L-V106A mutant infected in human MT4 cells assessed as protection against virus induced cytopathic effect and measured after 5 days by MTT spectrophotometric assay
Format: functional, organism-based
Settings: Human immunodeficiency virus 1, MT4, 120 h

Known results for compounds:
Cc1cn([C@H]2C[C@H](N=[N+]=[N-])[C@@H](CO)O2)c(=O)[nH]c1=O 0.026 µM
Cc1ccnc2c1NC(=O)c1cccnc1N2C1CC1 > 15 µM
O=C1Nc2ccc(Cl)cc2[C@@](C#CC2CC2)(C(F)(F)F)O1 0.41 µM
Cc1cc(C#N)cc(C)c1Oc1ccnc(NC2CCN(C(=O)c3cc4cc(NS(C)(=O)=O)ccc4[nH]3)CC2)n1 3.6 µM
Cc1cc(C)c(Oc2ccnc(NC3CCN(C(=O)c4cc5cc(NS(C)(=O)=O)ccc5[nH]4)CC3)n2)c(C)c1 3.06 µM

Exercise: Give its EC50 value. Item: "Cc1cc(Oc2ccnc(NC3CCN(C(=O)c4cc5cc(NS(C)(=O)=O)ccc5[nH]4)CC3)n2)cc(C)c1Cl"
Solution: > 5.3 µM

###

Test system: Human immunodeficiency virus 1
Experiment: Antiviral activity against HIV-1 Y181C mutant infected in human MT4 cells assessed as protection against virus induced cytopathic effect and measured after 5 days by MTT spectrophotometric assay
Assay type: functional, organism-based
Settings: Human immunodeficiency virus 1, MT4, 120 h
# pEC50 annotations
Reminder that pEC50 means the negative base-10 logarithm of the concentration expressed in mol/L.

Reference set, count: 5
Cc1cccc(C)c1Oc1ccnc(NC2CCN(C(=O)c3cc4cc(NS(C)(=O)=O)ccc4[nH]3)CC2)n1 6.08
Nc1ccn([C@@H]2CS[C@H](CO)O2)c(=O)n1 5.46
CS(=O)(=O)Nc1ccc2[nH]c(C(=O)N3CCC(Nc4nccc(Oc5cccc(Br)c5)n4)CC3)cc2c1 5.09
Cc1cc(C)c(Oc2ccnc(NC3CCN(C(=O)c4cc5cc(NS(C)(=O)=O)ccc5[nH]4)CC3)n2)c(C)c1 6.44
CS(=O)(=O)Nc1ccc2[nH]c(C(=O)N3CCC(Nc4nccc(Oc5ccccc5Br)n4)CC3)cc2c1 5.43

Exercise: Name the recorded pEC50 for "Cc1cn([C@H]2C[C@H](N=[N+]=[N-])[C@@H](CO)O2)c(=O)[nH]c1=O" .
Solution: 7.72

Exercise: Which pEC50 is reported for this molecule? "Cc1cc(C#N)cc(C)c1Oc1ccnc(NC2CCN(C(=O)c3cc4cc(NS(C)(=O)=O)ccc4[nH]3)CC2)n1"
Solution: 6.14

Exercise: Item under review: "CS(=O)(=O)Nc1ccc2[nH]c(C(=O)N3CCC(Nc4nccc(Oc5ccc(Br)cc5F)n4)CC3)cc2c1" . Reported pEC50?
Solution: 4.54

Exercise: Quick check: pEC50 of "Cc1ccccc1Oc1ccnc(NC2CCN(C(=O)c3cc4cc(NS(C)(=O)=O)ccc4[nH]3)CC2)n1" ?
Solution: 5.05

Exercise: Field request: pEC50 | item: "CS(=O)(=O)Nc1ccc2[nH]c(C(=O)N3CCC(Nc4nccc(Oc5ccccc5Cl)n4)CC3)cc2c1"
Solution: 5.23

Exercise: Could you tell me which pEC50 is on file for "CS(=O)(=O)Nc1ccc2[nH]c(C(=O)N3CCC(Nc4nccc(Oc5cccc(Cl)c5)n4)CC3)cc2c1" ?
Solution: 5.05

###

EC50 for assorted molecules
System: Human immunodeficiency virus 1
Test: Antiviral activity against HIV-1 RES056 mutant infected in human MT4 cells assessed as protection against virus induced cytopathic effect and measured after 5 days by MTT spectrophotometric assay
Type: functional, organism-based
Conditions: Human immunodeficiency virus 1, MT4, 120 h

Some molecules with known EC50 results, for comparison:
molecule	EC50
Cc1ccnc2c1NC(=O)c1cccnc1N2C1CC1 [NEVIRAPINE]	> 15 µM
Cc1cccc(C)c1Oc1ccnc(NC2CCN(C(=O)c3cc4cc(NS(C)(=O)=O)ccc4[nH]3)CC2)n1	> 21 µM
CS(=O)(=O)Nc1ccc2[nH]c(C(=O)N3CCC(Nc4nccc(Oc5cccc(Br)c5)n4)CC3)cc2c1	> 14 µM
O=C1Nc2ccc(Cl)cc2[C@@](C#CC2CC2)(C(F)(F)F)O1 [EFAVIRENZ]	0.57 µM
CS(=O)(=O)Nc1ccc2[nH]c(C(=O)N3CCC(Nc4nccc(Oc5cccc(C#N)c5)n4)CC3)cc2c1	> 29 µM
Cc1cc(Oc2ccnc(NC3CCN(C(=O)c4cc5cc(NS(C)(=O)=O)ccc5[nH]4)CC3)n2)cc(C)c1Cl	> 5.3 µM
CS(=O)(=O)Nc1ccc2[nH]c(C(=O)N3CCC(Nc4nccc(Oc5ccccc5Br)n4)CC3)cc2c1	> 17 µM

Now consider a different molecule.
Exercise: Reported EC50, molecule "CS(=O)(=O)Nc1ccc2[nH]c(C(=O)N3CCC(Nc4nccc(Oc5ccccc5Cl)n4)CC3)cc2c1" : ____
Solution: > 15 µM
